- SYSTEM: T1, ZIKV E protein (Suriname Z1106033) (Zika virus, Suriname Z1106033, UniProt A0A0U4DG08, strain)
- T1 construct: also called soluble ZIKV E protein
- METHOD: BLI; Octet HTX; MAb 0.1 to 0.3 μg/mL amine-coupled to AR2G biosensor; ZIKV-VLP 0.1 to 1.0 μg/mL or ZIKV E protein 0.2 to 2 μg/mL in 1x kinetic buffer; association 900 s, dissociation 1,200 s; Langmuir 1:1 model; average of two runs
- APPLIED_CONDITIONS: both partners purified
OBSERVABLE: Kd (nM)
Give just the numeric value; nM need not be written.

Example results:
INSERT INTO assay_data (binder, unit_annotation, measured) VALUES
  ('anti-ZIKV MAb 78-2 (antibody, V domains shown) VH: QQQLVESGGGLVKPGASLTLNCKASGLDFSTNSYMCWVRQAPGKGLEWIACIYVGDSSEIYYASWAKGRFTISKTSSTTVTLQMTSLTAADTATYFCARDLPSFTAPYAGYLRLWGPGTLVTVSS VL: QPVLTQPPSLSASLGTTARLTCTLRTGYNVGDYPLLWLQRVPGRPPRYLLTYHTEEFKHQGSGVHSRFSGSKDASENAGVLSISGLQPEDEANYYCYTVHATESSLHYVFGGGTQLTVT', 'nM', 0.1),
  ('anti-ZIKV MAb 306-2 (antibody, V domains shown) VH: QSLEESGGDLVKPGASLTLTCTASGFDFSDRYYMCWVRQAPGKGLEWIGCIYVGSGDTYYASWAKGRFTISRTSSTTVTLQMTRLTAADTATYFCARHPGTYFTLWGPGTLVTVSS VL: DVVMTQTPSSVSAAVGGTVTINCQASQNIVNNLAWYQQRPGQPPKLLIYDTSTLASGVPSRFKGSGSGTEFTLTISDLECADAATYYCQTYYYYNKIINGFGGGTEVVVK', 'nM', 0.17),
  ('anti-ZIKV MAb 11-3 (antibody, V domains shown, recombinant rabbit IgG) VH: QEQLVESGGGLVQPEGSLTITCTGSGFSFSSRFYMCWVRQAPGKGLEWIACIYGGSSGSTYYASWAKGRFTISKTSSTTVTLQISSLTAADTATYFCARGGSTAAAGFNLWGPGTLLTVSS VL: DVVMTQTPASVSATVGGTVTIKCQASEDIYNLLAWYQQKPGQPPKLLIYYASTLASGVPSRFKGSGSGTEFTLTISDLECADAATYYCQCNDYGGTYVPNAFGGGTEVVVK', 'nM', 1.53);

Input line: Tell me the measured Kd of anti-ZIKV MAb 289-3 (antibody, V domains shown) VH: QEELEESGGDLVKPGASLTLTCKASGFSFSSGAYICWVRQAPGKGPEWIACIYTGDGRTYYANWAKRRFTISSSSSTTVALEMPSLTDADTATYFCARAIAVGAGYGVGNYFTLWGPGTLVTVSS VL: DIVMTQTPSSVSAAVGGTVTINCHASENIYGYLSWYQQKPGQPPKLLIYKASTLASGVPSRFKGSGAGTQFTLTITALECADAATYYCQSYYTSSSNADGSENAFGGGTEVVVE , please.
Output line: 0.29

Input line: Tell me the measured Kd of anti-ZIKV MAb 242-3 (antibody, V domains shown, recombinant rabbit IgG; 99% amino acid identity with 270-12) VH: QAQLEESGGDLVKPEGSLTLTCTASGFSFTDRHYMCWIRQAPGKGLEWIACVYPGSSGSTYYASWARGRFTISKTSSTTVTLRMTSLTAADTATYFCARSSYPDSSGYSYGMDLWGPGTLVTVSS VL: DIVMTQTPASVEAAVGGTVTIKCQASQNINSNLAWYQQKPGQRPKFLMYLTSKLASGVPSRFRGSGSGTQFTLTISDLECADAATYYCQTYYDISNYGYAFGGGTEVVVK , please.
Output line: 1.22

Input line: Tell me the measured Kd of anti-ZIKV MAb 270-12 (antibody, V domains shown, source: 293-6E cells, cotransfected, purified (MabSelect SuRe protein A)) VH: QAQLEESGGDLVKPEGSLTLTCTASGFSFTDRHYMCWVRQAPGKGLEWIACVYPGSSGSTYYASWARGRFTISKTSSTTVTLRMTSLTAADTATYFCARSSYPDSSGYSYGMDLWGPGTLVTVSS VL: DIVMTQTPASVEAAVGGTVTIKCQASQDINSNLAWYQQKPGQRPKFLMYLTSKLASGVPSRFRGSGSGTQFTLTISDLECADAATYYCQTYYDISNYGYAFGGGTEVVVK , please.
Output line: 1.04

Where these numbers come from: paper PMC9175631
